Target: Sodium-dependent noradrenaline transporter (Homo sapiens, UniProt P23975)
Sequence (P23975 whole entry): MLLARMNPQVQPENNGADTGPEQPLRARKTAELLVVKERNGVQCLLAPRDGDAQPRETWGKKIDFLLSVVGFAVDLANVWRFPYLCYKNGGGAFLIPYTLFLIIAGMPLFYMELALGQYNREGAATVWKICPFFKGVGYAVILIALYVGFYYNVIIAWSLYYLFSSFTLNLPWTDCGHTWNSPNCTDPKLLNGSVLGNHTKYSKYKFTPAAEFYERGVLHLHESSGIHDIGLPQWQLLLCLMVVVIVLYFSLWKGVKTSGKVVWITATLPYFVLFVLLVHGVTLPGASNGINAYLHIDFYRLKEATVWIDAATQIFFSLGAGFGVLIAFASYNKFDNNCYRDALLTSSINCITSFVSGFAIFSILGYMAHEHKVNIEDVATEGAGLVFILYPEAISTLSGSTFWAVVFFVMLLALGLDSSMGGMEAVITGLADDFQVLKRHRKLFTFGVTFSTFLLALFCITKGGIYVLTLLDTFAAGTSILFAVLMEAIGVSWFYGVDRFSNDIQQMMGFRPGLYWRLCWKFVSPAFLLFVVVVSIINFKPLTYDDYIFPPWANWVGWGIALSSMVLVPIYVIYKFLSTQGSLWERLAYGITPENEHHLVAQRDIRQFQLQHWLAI
Assay: In vitro competitive binding versus [3H]- […] in murine kidney cells transfected with cDNA for human norepinephrine transporter (NET)
Parameter: Ki (nM)
API: value field is a number in nM; no unit string.

Here's what some known entries look like.
INSERT INTO measurements (compound, unit_annotation, result_value) VALUES
  ('COC(=O)[C@@H]1C2CCC(C[C@@H]1c1ccc(/C=C/I)cc1)N2 (stereo partly drawn)', 'nM', 32),
  ('COC(=O)[C@@H]1C2CC[C@H](C[C@@H]1c1ccc(I)cc1)N2C', 'nM', 1.4);

Problem: Any idea what its Ki is? The compound is COC(=O)[C@@H]1C2CCC(C[C@@H]1c1ccc(/C=C\I)cc1)N2 (stereo partly drawn)
Result: 24
